- system_tested: human CCR8 (human, UniProt P51685 1-355)
- Sequence (P51685 whole entry): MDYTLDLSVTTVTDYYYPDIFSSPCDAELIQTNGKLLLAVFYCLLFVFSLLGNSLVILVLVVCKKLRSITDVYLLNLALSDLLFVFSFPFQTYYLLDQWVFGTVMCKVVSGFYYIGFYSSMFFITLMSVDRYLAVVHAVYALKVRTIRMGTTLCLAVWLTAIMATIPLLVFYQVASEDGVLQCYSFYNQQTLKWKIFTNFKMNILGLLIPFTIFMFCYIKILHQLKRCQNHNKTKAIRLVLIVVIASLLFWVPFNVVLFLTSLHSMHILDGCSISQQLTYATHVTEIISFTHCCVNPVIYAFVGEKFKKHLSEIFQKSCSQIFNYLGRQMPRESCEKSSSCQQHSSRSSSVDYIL
- method_description: cell-based or functional assay
We begin with a simple list: items and their reported ADCC EC50 (nM), NK92-CD16A effectors, HEK293-hCCR8 targets, LDH release.
property_measured: ADCC EC50 (nM), NK92-CD16A effectors, HEK293-hCCR8 targets, LDH release

binder="110G2 anti-CCR8 chimeric antibody (antibody, V domains shown) VH: QVQLVESNGRLVQPKGSLKLSCAASGFTFNAYAMNWVRQAPGKGLEWVARIRSKSNNYATYYADSVKDRFTISRDDSQSMLYLQMNNLKTEDTAMYFCVRQKFGARGYYALDFWGQGASVTVSS VL: EILLTQSPAIMSASPGEKVTMTCRASSSVSSSYLHWYQQKSGASPKLWIYSTSNLASGVPARFSGSGSGTSYSLTISSVEAEDAATYYCQQYSGYPYTFGGGTKLEIK" assay_result=0.04
binder="102H5 anti-CCR8 chimeric antibody (antibody, V domains shown) VH: QVQLVESNGRLVQPKGSLKLSCAASGFTFNAYAMNWVRQAPGKGLEWVARIRSKSNNYATYYADSVKDRFTISRDDSQNMLYLQMNNLKTEDTAMYFCVRQKFGARGYYALDFWGQGATVTVSS VL: DIVLTQSPASLAVSLGQRATISCRASESVEYYGTSLMQWYQQKPGQPPKLLIYAASNVESGVPARFSGSGSGTDFSLNIHPVEEDDIAMYFCQQSRKVPYTFGGGTKLEIK" assay_result=0.06

// provenance: patent US20250215097A1
